Values compiled from ChEMBL document CHEMBL1149470.

Target: RNA-directed RNA polymerase (Hepacivirus hominis, UniProt O39930)
Sequence (O39930 whole entry): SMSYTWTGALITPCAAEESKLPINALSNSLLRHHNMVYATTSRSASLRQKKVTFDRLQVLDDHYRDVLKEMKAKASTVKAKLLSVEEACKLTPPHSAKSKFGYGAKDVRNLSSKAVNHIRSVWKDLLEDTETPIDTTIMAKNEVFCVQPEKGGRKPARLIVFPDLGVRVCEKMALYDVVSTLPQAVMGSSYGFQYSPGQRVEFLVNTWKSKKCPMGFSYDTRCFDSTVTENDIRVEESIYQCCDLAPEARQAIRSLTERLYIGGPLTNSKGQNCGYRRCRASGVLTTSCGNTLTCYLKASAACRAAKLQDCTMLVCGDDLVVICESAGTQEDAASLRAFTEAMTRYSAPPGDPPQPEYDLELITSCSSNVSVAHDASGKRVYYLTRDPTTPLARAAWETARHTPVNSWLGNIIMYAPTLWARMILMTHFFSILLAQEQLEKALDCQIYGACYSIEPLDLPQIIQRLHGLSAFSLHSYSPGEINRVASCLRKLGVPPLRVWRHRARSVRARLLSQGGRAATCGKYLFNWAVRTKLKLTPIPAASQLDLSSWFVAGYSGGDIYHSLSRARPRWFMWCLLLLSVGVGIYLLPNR
Test: Inhibitory activity against HCV 1b BK NS5B deltaC21 RNA polymerase
pIC50: −log10 of the molar value.
The threshold is inclusive: pIC50 of exactly 5 counts as Condition met; values below receive Condition not met.

Exam item: Reported pIC50 reaches at least 5 for Cc1cc(SC2=C(O)OC(CCc3ccc(O)cc3)(C3CCCC3)CC2=O)c(C(C)(C)C)cc1N (configuration not stated) ?
Marked response: Condition met

Exam item: Then CC(C)c1ccc(CCC2(C3CCCC3)CC(=O)CC(=O)O2)cc1 (configuration not stated) ?
Marked response: Condition met

Exam item: Then CCCC1(CCc2ccc(OC)cc2)CC(=O)CC(=O)O1 (configuration not stated) ?
Marked response: Condition not met

Exam item: Then O=C1CC(=O)OC(CCc2ccc(O)cc2)(C2CCCCC2)C1 (configuration not stated) ?
Marked response: Condition not met

Exam item: Then Cc1cccc(CCC2(C3CCCC3)CC(=O)CC(=O)O2)c1 (configuration not stated) ?
Marked response: Condition not met

Exam item: Then O=C1CC(=O)OC(CCc2ccccc2)(C2CCCC2)C1 (configuration not stated) ?
Marked response: Condition not met

Exam item: Then COc1ccc(CCC2(C3CCCC3)CC(=O)C(Sc3nnnn3C)=C(O)O2)cc1Cl (configuration not stated) ?
Marked response: Condition met

Exam item: Then CC(C)Oc1ccc(CCC2(C3CCCC3)CC(=O)CC(=O)O2)cc1 (configuration not stated) ?
Marked response: Condition met

Exam item: Then O=C1CC(=O)OC(CCc2ccc(O)cc2)(C2CCC2)C1 (configuration not stated) ?
Marked response: Condition not met

Exam item: Then CCc1cccc(CCC2(C3CCCC3)CC(=O)CC(=O)O2)c1 (configuration not stated) ?
Marked response: Condition met

Exam item: Then CCOc1ccc(CCC2(C3CCCC3)CC(=O)CC(=O)O2)cc1F (configuration not stated) ?
Marked response: Condition met
